# Method summary: enzyme kinetic measurements with purified protein
# Format: biochemical
# Study conditions: relative values
Experimental readout: Vmax Fluazifop

Ask | Could you share which Vmax Fluazifop value was measured for MON-HT52: engineered oxygenase protein, amino acid sequence SEQ ID NO:4 (protein) MHAALSPLSQRFERIAVQPLTGVLGAEITGVDLREPLDDSTWNEILDAFHTYQVIYFPGQAITNEQQIAFSRRFGPVDPVPLLKSIEGYPEVQMIRREANESGRVIGDDWHTDSTFLDAPPAAVVMRAIDVPEHGGDTGFLSMYTAYDALSDGLKKLISGLNVVHSATRVFGSLYQAQNRRFSNTSVKVMDVDAGDRETVHPLVVTHPGSGRKGLYVNQVYCQRIEGMSEKESEPLLSFLFAHATKPEFTCRVRWKKDQVLVWDNLCTMHYAINDYHGQTRILHRTTVGGVRPAR ?
Reply | 43
